Target: T1, MICA.008.a3.T204-S297.C-terminal insert of N298.G299.S300.mIgG2a.Glyco17 (human; mouse, UniProt Q29983 204-297, engineered N-linked glycosylation site at inserted N298)
T1 construct: not shown: murine IgG2a Fc
T1 chain: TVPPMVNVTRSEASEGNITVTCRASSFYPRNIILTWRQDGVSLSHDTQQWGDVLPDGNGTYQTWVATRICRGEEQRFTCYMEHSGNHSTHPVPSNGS
Experiment: ELISA, coated variant;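 note: ELISA with plates coated at 2 ug/ml with MICA*008 alpha 3 glycosylation variants as murine IgG2a Fc fusions, antibody binding detected by HRP anti-human IgG Fc and TMB absorbance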
observation type: binding result

1. 15F11 (antibody, V domains shown, Mouse variable domains; constant regions differ by assay) VH: EIQLQQSGPELVKPGASVRVSCKPSGYAFTSNNIYWVKQSRRKSLEWIGYIDPYIGRIIYNQQFKDKATLTVDKSSSTAYMHLNSLTSEDSAVYYCSRSGERSNFDYWGQGTTLTVSS VL: EIVLTQSPTAMAASPGEKITITCSASSSISSNYLHWYQQKPGFSPKLLIYRTSNLASGVPARFSGSGSGTSYSLTIGPMEAEDVATYYCQQGGSLPLTFGAGTKVEIK ... binds
2. 20G11 (antibody, V domains shown, Mouse hybridoma antibody; constant regions differ by assay) VH: DVQLVESGGGLVQPGGSRKLSCAASGFTFSTFGIHWVRQAPEKGLEWVAYISYDSRTIYYADTVKGRFTISRDNPKNTLFLQMTSLRSEDTAMYYCARWAYEGGVNYFDNWGQGTTLTVSS VL: QIVLTQSPAIMSASLGERVTMTCTATSGVSSSYLHWYQQKPGSSPKLWIYSSSNLASGVPARFSGSGSGTSYSLTIGSMEAEDAATYYCHQFHRSPLTFGTGTKVEIK ... binds
